Values were extracted from patent US8193191B2.

- assayed.target: Human UII receptor, 6D9 human rhabdomyosarcoma cells (Homo sapiens)
- Construct: 6D9: isolated by dilution subcloning of RMS13 cells, ATCC® Number: CRL-2061
- Sequence (Q9UKP6 1-389): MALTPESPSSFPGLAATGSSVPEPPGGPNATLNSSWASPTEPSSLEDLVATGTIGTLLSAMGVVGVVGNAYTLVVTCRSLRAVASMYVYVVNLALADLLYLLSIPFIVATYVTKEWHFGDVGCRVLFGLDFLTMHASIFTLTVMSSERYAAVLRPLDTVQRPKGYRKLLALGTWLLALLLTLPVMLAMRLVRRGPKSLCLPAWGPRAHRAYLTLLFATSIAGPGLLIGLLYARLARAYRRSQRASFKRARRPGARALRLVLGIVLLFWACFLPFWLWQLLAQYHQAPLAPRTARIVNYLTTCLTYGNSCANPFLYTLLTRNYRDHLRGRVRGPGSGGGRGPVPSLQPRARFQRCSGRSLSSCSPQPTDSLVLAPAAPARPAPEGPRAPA
- measurement.notes: Human UII Calcium Mobilization Assay
- test.conditions: average value, FLIPR TETRA, read-out: Human UII Ca^+ Mobilization Average IC50
reported.property: pIC50
In textbook form, pIC50 equals minus log to base ten of the concentration in mol/L.

Give the measured pIC50 of COc1ccc([C@@H](CCCNC(=O)c2ccnnc2)N2C(=O)c3cccc(N4CCN([C@H](C)c5ccccc5)CC4)c3C2=O)cc1OC [Cpd 160] .
6.40

Record: COc1ccc([C@@H](CCCNC(=O)c2cccn2C)N2C(=O)c3cccc(N4CCN([C@H](C)c5ccccc5)CC4)c3C2=O)cc1OC [Cpd 147]
5.68

Record: COc1ccc([C@@H](CCCNC(=O)c2csc(C)n2)N2C(=O)c3cccc(N4CCN([C@H](C)c5ccccc5)CC4)c3C2=O)cc1OC [Cpd 156]
6.31

Record: COCCC(=O)NCCC[C@H](c1ccc(OC)c(OC)c1)N1C(=O)c2cccc(N3CCN([C@H](C)c4ccccc4)CC3)c2C1=O [Cpd 177]
5.96

Record: COc1ccc([C@@H](CCCNC(=O)C2CCC2)N2C(=O)c3cccc(N4CCN([C@H](C)c5ccccc5)CC4)c3C2=O)cc1OC [Cpd 178]
6.25
